Values compiled from the Human Domainome abundance scans (Beltran et al. 2025).

B1: Nuclear receptor subfamily 4 group A member 2, residues 260 to 336; numbered along this chain, P43354 (parent)
chain: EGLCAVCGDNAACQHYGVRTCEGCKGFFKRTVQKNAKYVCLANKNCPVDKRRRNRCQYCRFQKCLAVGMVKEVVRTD

Variants of: B1
Test: abundance fitness (aPCA) (normalised: wild type 0, dead -1); higher = more abundant; growth selection in yeast, the domain comes from the species named
Conditions: Homo sapiens
The entries below are paired with their reported abundance fitness.

construct_sequence=EGLCAVCGDNAACQHYGVRTCEGCKGFFKRTVQKNAEYVCLANKNCPVDKRRRNRCQYCRFQKCLAVGMVKEVVRTD result=-0.177

Entry `EGLCAVCGDNAACQHYGVRTCEGCKGFFSRTVQKNAKYVCLANKNCPVDKRRRNRCQYCRFQKCLAVGMVKEVVRTD` : reported abundance fitness = ?
0.121

What does the data say about its abundance fitness? Entry: `EGLCAVCGDNAACQHYGVRTCEGCKFFFKRTVQKNAKYVCLANKNCPVDKRRRNRCQYCRFQKCLAVGMVKEVVRTD`
0.068

Endpoint output: abundance fitness of `EGLCAVCGDNAACQHYGVRTCEGCKGFFKRTVQKNAKYVCLANKNCPVDKRRRNRCQYCRFQKCLAVGMVKLVVRTD` . Value?
-0.468

For the variant shown here, `EGLCAVCGDNAACQHYGVRTCEGCKGFFKRTVQKNAKYVCLANKNCPVDKRVRNRCQYCRFQKCLAVGMVKEVVRTD` , give the reported abundance fitness.
-0.021

May I ask what abundance fitness has been recorded for `EGLCAVCGDNAACQHYGVRTCEGCKGFFKRTVQKNAKYVCLANKNCPVDKRRRNRCQYCRFQKCLAVGDVKEVVRTD` ?
-0.704
